Where do the numbers come from? From patent US8343988B2.

Target: histone deacetylase (HeLa nuclear extracts)
Assay: In vitro assay for inhibition of histone deacetylase
Type: biochemical
Details: [3H]acetylated histone H4 peptide substrate, 30 min
READOUT LABEL: Enzyme activity pIC50

Please review the entries below; each comes with its answer.
| QUERY SMILES | EXPERIMENTAL SYSTEM | READOUT LABEL | VALUE MEASURED |
| --- | --- | --- | --- |
| O=C(NO)c1cc([N+](=O)[O-])ccc1N1CCC(Cc2ccccc2)CC1 | histone deacetylase (HeLa nuclear extracts) | Enzyme activity pIC50 | <5 |
| Cc1ccc2nc(-c3cc4ccccc4o3)n(CC3CCN(c4ncc(C(=O)NO)cn4)CC3)c(=O)c2c1 | histone deacetylase (HeLa nuclear extracts) | Enzyme activity pIC50 | 7.235 |
| O=C(NO)c1ccc(N2CCN(CCCC(c3ccc(F)cc3)c3ccc(F)cc3)CC2)c([N+](=O)[O-])c1 | histone deacetylase (HeLa nuclear extracts) | Enzyme activity pIC50 | >5 |

Turning now to a further compound:
Would you kindly share the measured Enzyme activity pIC50 for O=C(NO)c1cnc(N2CCC(N3CCN(S(=O)(=O)c4ccc5ccccc5c4)CC3)CC2)nc1 ?
7.306
